molecular target: cathepsin B (Mus musculus); construct: Cathepsin B activity in the cell medium; endogenous in cells; host or cells: Hepa-1c1c7 (CRL-2026); test: Inhibition of cathepsin B activity, FL83B cells; format: cell-based; conditions: FL83B non-tumour cells
readout: pKi
Units for pKi: none; it is -log10 of a concentration expressed in mol/L.

Some solved cases for reference:
CCCCCC1=NN(C(=O)CCO)O[C@H](CCCCC)C1 ... 8.58
CCCCCC1=NN(C(=O)CCOC(C)=O)O[C@H](CCCCC)C1 ... 9.18
CCCCCC1=NN(C(=O)CCOC(=O)CCC(=O)O)O[C@H](CCCCC)C1 ... 8.34

Now take the following compound into account.
Field pKi (entry CCCNC(=O)[C@H]1O[C@@H]1C(=O)N[C@H](C(=O)N1CCC[C@H]1C(=O)O)[C@@H](C)CC (relative stereo) [CA 074, reference compound] ) reads 8.51

###

Known Ki of a selection of compounds
biological target: cathepsin B (Mus musculus); construct: Cathepsin B activity in the cell medium; endogenous in cells; host or cells: Hepa-1c1c7 (CRL-2026); test: Inhibition of cathepsin B activity, TKPTS cells; format: cell-based; conditions: TKPTS non-tumour cells
Give just the numeric value; nM need not be written.

Some compounds with known Ki results, for comparison:
CCCCCC1=NN(C(=O)CCOC(=O)CCC(=O)O)O[C@H](CCCCC)C1 ... 3.29
CCCNC(=O)[C@H]1O[C@@H]1C(=O)N[C@H](C(=O)N1CCC[C@H]1C(=O)O)[C@@H](C)CC (relative stereo) [CA 074, reference compound] ... 2.39
CCCCCC1=NN(C(=O)CCO)O[C@H](CCCCC)C1 ... 2.13

# context switch: different compound, same Ki
Field Ki (entry "CCCCCC1=NN(C(=O)CCOC(C)=O)O[C@H](CCCCC)C1" ) reads 0.49

###

The following compounds are listed with their measured Ki values.
Molecular target: cathepsin B (Mus musculus, UniProt P10605)
Construct: Cathepsin B activity in the cell medium; endogenous in cells; host or cells: Hepa-1c1c7 (CRL-2026)
Sequence (P10605 80-339): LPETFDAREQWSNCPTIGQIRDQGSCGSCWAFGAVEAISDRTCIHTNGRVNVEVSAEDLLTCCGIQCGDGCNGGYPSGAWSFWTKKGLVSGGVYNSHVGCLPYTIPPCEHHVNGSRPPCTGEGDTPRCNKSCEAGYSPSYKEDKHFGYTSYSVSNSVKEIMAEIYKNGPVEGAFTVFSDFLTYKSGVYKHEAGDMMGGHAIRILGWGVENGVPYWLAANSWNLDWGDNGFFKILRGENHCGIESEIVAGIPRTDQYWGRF
Assay: Inhibition of cathepsin B activity, Hepa-1c1c7 cells
Format: cell-based
Conditions: Hepa-1c1c7 tumour cells
Method: For the determination of the cathepsin B’s inhibition activity, its superficial expression in two tumour cell lines (ACHN and Hepa-1c1c7 cells) and two non-tumour cell lines (TKPTS and FL83B cells) was evaluated by flow cytometry. Cathepsin B activity in the cell medium was evaluated by using a fluorogenic substrate: Abz-Gly-Ile-Val-Arg~Ala-Lys(Dnp)-OH. This peptide substrate was purchased from Bachem AG (Bubendorf, Switzerland). The reactions were performed at 40 °C for 10 min [38]. […]
Field: numeric (nM). Do not append units.

Solved cases below.
CCCCCC1=NN(C(=O)CCO)O[C@H](CCCCC)C1 ... 3.37
CCCNC(=O)[C@H]1O[C@@H]1C(=O)N[C@H](C(=O)N1CCC[C@H]1C(=O)O)[C@@H](C)CC (relative stereo) [CA 074, reference compound] ... 5.99
CCCCCC1=NN(C(=O)CCOC(C)=O)O[C@H](CCCCC)C1 ... 6.59

The measured Ki associated with "CCCCCC1=NN(C(=O)CCOC(=O)CCC(=O)O)O[C@H](CCCCC)C1" reads 1.76

###

assay: SRB viability assay, TKPTS cells; type: cell-based; conditions: mouse, TKPTS normal kidney proximal tubule cells, TKPTS non-tumour cell line, hypoxic conditions (1% O2)
readout: CC50 at 72 h (nM)
Kindly answer with a numeric value in nM, unit omitted.

Consider the following illustrative entries.
CCCCCC1=NN(C(=O)CCO)O[C@H](CCCCC)C1 [Compound 1] ... 1100
CCCCCC1=NN(C(=O)CCOC(=O)CCC(=O)O)O[C@H](CCCCC)C1 [Compound 3] ... 1620

Next:
Item: CCCCCC1=NN(C(=O)CCOC(C)=O)O[C@H](CCCCC)C1 [Compound 2] | CC50 at 72 h: 1060

This collection of values is drawn from paper PMC10221466.
